Let's look at some compounds and their measured IC50.
- method: DPPH radical scavenging assay
- Format: biochemical
- condition.notes: mean ± SD, converted from mg/mL; read-out: Mean IC50 for scavenging initial DPPH radicals (converted)

Exercise: Provide one value: measured IC50 of O=c1c2cc(Br)ccc2nc(SCc2cccc([N+](=O)[O-])c2)n1-c1ccc([N+](=O)[O-])cc1
Key: 390 µM

Exercise: Provide one value: measured IC50 of COc1ccc(Br)c(CSc2nc3ccc(Cl)cc3c(=O)n2-c2ccc([N+](=O)[O-])cc2)c1
Key: 452 µM

Exercise: Provide one value: measured IC50 of O=c1c2cc(Cl)ccc2[nH]c(=S)n1-c1ccc([N+](=O)[O-])cc1
Key: 680 µM

Exercise: Provide one value: measured IC50 of O=c1c2cc(Cl)ccc2nc(SCc2ccccc2F)n1-c1cccc(C(F)(F)F)c1
Key: 172 µM

Exercise: Provide one value: measured IC50 of COc1cc2nc(SCc3ccc(Cl)cc3)n(-c3ccc([N+](=O)[O-])cc3)c(=O)c2cc1OC
Key: 752 µM

Exercise: Provide one value: measured IC50 of Cc1cc(C(C)(C)C)c(O)c(C(C)(C)C)c1 [BHT, butylated hydroxy toluene, reference compound]
Key: 245 µM

Exercise: Provide one value: measured IC50 of COc1cc2nc(SCc3cccc([N+](=O)[O-])c3)n(-c3cccc(C(F)(F)F)c3)c(=O)c2cc1OC
Key: 359 µM

Exercise: Provide one value: measured IC50 of COc1ccc(Br)c(CSc2nc3ccc(Br)cc3c(=O)n2-c2ccc(C(F)(F)F)cc2)c1
Key: 375 µM

Exercise: Provide one value: measured IC50 of O=c1c2cc(Br)ccc2[nH]c(=S)n1-c1ccc([N+](=O)[O-])cc1
Key: 165 µM

Exercise: Provide one value: measured IC50 of O=c1c2cc(Cl)ccc2[nH]c(=S)n1-c1ccc(C(F)(F)F)cc1
Key: 502 µM

Exercise: Provide one value: measured IC50 of O=c1c2cc(Cl)ccc2nc(SCc2ccc(Cl)cc2)n1-c1ccc(C(F)(F)F)cc1
Key: 416 µM

Exercise: Provide one value: measured IC50 of O=c1c2cc(Br)ccc2nc(SCc2ccc(Cl)cc2)n1-c1cccc(C(F)(F)F)c1
Key: 318 µM

Exercise: Provide one value: measured IC50 of COc1cc2[nH]c(=S)n(-c3ccc([N+](=O)[O-])cc3)c(=O)c2cc1OC
Key: 904 µM

Exercise: Provide one value: measured IC50 of COc1cc2[nH]c(=S)n(-c3cccc(C(F)(F)F)c3)c(=O)c2cc1OC
Key: 262 µM

Exercise: Provide one value: measured IC50 of O=c1c2cc(Br)ccc2[nH]c(=S)n1-c1ccc(C(F)(F)F)cc1
Key: 723 µM

Exercise: Provide one value: measured IC50 of O=c1c2cc(Cl)ccc2[nH]c(=S)n1-c1cccc(C(F)(F)F)c1
Key: 191 µM

###

- test.system: α-amylase
- method: In vitro α-amylase (AA) inhibition assay
- condition.notes: read-out: Mean IC50 α-Amylase (AA); mean ± SD of three replicates
readout.type: IC50
The reply must contain the numeric value and, after it, the unit.

Study these solved cases before continuing.
{"columns": ["smiles.data", "test.system", "IC50"],
 "data": [
  ["O=c1c2cc(Cl)ccc2nc(SCc2ccccc2F)n1-c1cccc(C(F)(F)F)c1", "α-amylase", "186 µM"],
  ["COc1cc2nc(SCc3cccc([N+](=O)[O-])c3)n(-c3cccc(C(F)(F)F)c3)c(=O)c2cc1OC", "α-amylase", "381 µM"],
  ["COc1cc2[nH]c(=S)n(-c3ccc([N+](=O)[O-])cc3)c(=O)c2cc1OC", "α-amylase", "339 µM"]
]}

# context switch: different compound, same IC50
Exercise: Provide one value: measured IC50 of COc1ccc(Br)c(CSc2nc3ccc(Br)cc3c(=O)n2-c2ccc(C(F)(F)F)cc2)c1
Key: 250 µM
